systemTested: T1, biotinylated avi-tagged TβRII (UniProt P37173 23-166, a single biotin on the avi tag (BirA))
T1 construct: also called TβRII (SPR surface)
T1 sequence (P37173 23-166): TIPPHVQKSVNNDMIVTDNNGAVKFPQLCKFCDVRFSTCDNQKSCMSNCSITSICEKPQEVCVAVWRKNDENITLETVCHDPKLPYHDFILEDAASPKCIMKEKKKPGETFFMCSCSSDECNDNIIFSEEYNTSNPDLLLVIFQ
experimentalProtocol: SPR; biotinylated avi-tagged TβRII captured (50-150 RU) on a neutravidin-coated CM-5 chip, TGM-D3 and its variants injected; 25 mM Hepes, pH 7.4, 150 mM NaCl, 0.05% surfactant P20, 100 µl/min; 1:1 kinetic fit of duplicate or triplicate injection series
particulars: both partners purified
# koff listing for each entry below

binder | koff
TGM-D3 F235A (domain or fragment, also called Phe235Ala; not shown: Thioredoxin, N-terminal, cleaved; His6, N-terminal, cleaved) GSGTGCPPLPDDGIVFYEYYGYAGDRHTVGPVVTKDSSGNYPSPTHARRRCRALSQEADPGEAVAICYKSGTTGESHWEYYKNIGKCPDP | 1.8 s⁻¹
TGM-D3 I256A (domain or fragment, also called Ile256Ala; not shown: Thioredoxin, N-terminal, cleaved; His6, N-terminal, cleaved) GSGTGCPPLPDDGIVFYEYYGYAGDRHTVGPVVTKDSSGNYPSPTHARRRCRALSQEADPGEFVAICYKSGTTGESHWEYYKNAGKCPDP | 1.4 s⁻¹
TGM-D3 I238A (domain or fragment, not shown: Thioredoxin, N-terminal, cleaved; His6, N-terminal, cleaved) GSGTGCPPLPDDGIVFYEYYGYAGDRHTVGPVVTKDSSGNYPSPTHARRRCRALSQEADPGEFVAACYKSGTTGESHWEYYKNIGKCPDP | 2.3 s⁻¹

Continue with the binder presented below.
Report koff for TGM-D3 K254A (domain or fragment, also called Lys254Ala; not shown: Thioredoxin, N-terminal, cleaved; His6, N-terminal, cleaved) GSGTGCPPLPDDGIVFYEYYGYAGDRHTVGPVVTKDSSGNYPSPTHARRRCRALSQEADPGEFVAICYKSGTTGESHWEYYANIGKCPDP please.
12 s⁻¹

src = paper PMC9163516
